System: ENR+CD organoids
test-description: Primary screen: ATP (CellTiter-Glo 3D, CTG) cell number/viability, 2.5-D 384-well ENR+CD organoids;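 further: compounds given at plating and again on day 3 over a 6-day differentiation from ENR+CV stem-cell-enriched precursors, ATP measured on day 6, plate median as control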
study-conditions: primary screen, dose 0.40 uM
Structures can show the parent of a compound that is named as a salt.
assay-readout: Dose.FC.CTG (log2 fold change)
The answer is to be given in log2 fold change; state only the numeric part.

Observe how each entry below is paired with its result.
Cc1c(-c2ccc(O)cc2)n(Cc2ccc(OCCN3CCCCCC3)cc2)c2ccc(O)cc12 [Bazedoxifene HCl] :: 0.365
CC1=C(C(=O)OC2CCCCC2)C(c2ccc([N+](=O)[O-])cc2)C2=C(CC(C)(C)CC2=O)N1 (centres unmarked) :: 0.095
Clc1ccccc1CN1CCc2sccc2C1 [Ticlopidine HCl] :: −0.041

According to the records, this compound CC(C)N(CC[C@H](c1ccccc1)c1cc(CO)ccc1O)C(C)C [5-hydroxymethyl Tolterodine (PNU 200577, 5-HMT, 5-HM)] displays Dose.FC.CTG of 0.087

Entry under test: CCOC(=O)c1ccc(NC2CCCCC2)c(N)c1 . Its Dose.FC.CTG was 0.453

Summary for this compound, CN(C)CCOc1ccc(/C(=C(/CCCl)c2ccccc2)c2ccccc2)cc1 [Toremifene Citrate] : Dose.FC.CTG is 0.119

Lab note: CC(C)(C)c1nc(-c2cccc(NS(=O)(=O)c3c(F)cccc3F)c2F)c(-c2ccnc(N)n2)s1 gave Dose.FC.CTG of 0.011

Record summary for CN(C)CCCCC(=O)Nc1ccc(NC(=S)NC(=O)c2ccc(C(C)(C)C)cc2)cc1 : reported Dose.FC.CTG = −0.506

----------
System: ENR+CD organoids (ISC to Paneth cell differentiation)
test-description: Primary screen: basal (non-stimulated) lysozyme secretion LYZ.NS, 2.5-D 384-well ENR+CD organoid differentiation
Type: cell-based, mouse
study-conditions: primary screen, dose 0.40 uM, standard z score
# reported Z.LYZ.NS; entries follow
Output: the number by itself.

Consider the worked cases shown below.
CCOC(=O)c1ccc(N2NC(=O)/C(=C/c3ccc([N+](=O)[O-])o3)C2=O)cc1 [PYR-41] :: 0.777
O=C(NCc1cccc(O)c1)Nc1nc(-c2ccncc2)cs1 [RKI-1447] :: −0.803

// Z.LYZ.NS (ENR+CD organoids (ISC to Paneth cell differentiation)) for O=C(NNc1ccccc1)c1ccncc1 [PluriSIn #1 (NSC 14613)] = 0.039

The observed Z.LYZ.NS for Oc1cc(O)cc(/C=C/c2ccc(O)c(O)c2)c1 [Piceatannol] when tested with ENR+CD organoids (ISC to Paneth cell differentiation) stands at 0.375

Param item: Cl.NC(=O)c1cnc(N[C@@H]2CCCC[C@@H]2N)nc1Nc1cccc(-n2nccn2)c1 [PRT062607 (P505-15, BIIB057) HCl] ; param system: ENR+CD organoids (ISC to Paneth cell differentiation); output Z.LYZ.NS: 0.194

----------
Reported Dose.FC.LYZ.S (log2 fold change) values are given for each entry in this list.
Tested on: ENR+CD organoids (ISC to Paneth cell differentiation)
test-description: Primary screen: CCh-stimulated lysozyme secretion LYZ.S, 2.5-D 384-well ENR+CD organoid differentiation
Format: cell-based, mouse
study-conditions: primary screen, dose 0.08 uM
Structures can show the parent of a compound that is named as a salt.
// print number alone

Consider the reported Dose.FC.LYZ.S (log2 fold change) for these compounds:
CCOC(=O)[C@H](CCc1ccccc1)N[C@@H](C)C(=O)N1C(=O)N(C)C[C@H]1C(=O)O [Imidapril HCl] :: −0.042
CC(C)CCNC(=O)[C@H](CC(C)C)NC(=O)[C@H]1O[C@@H]1C(=O)O [Loxistatin Acid (E-64C)] :: 0.125
CNC(=O)[C@H](Cc1c[nH]c2ccccc12)NC(=O)[C@@H](CC(=O)NO)CC(C)C [Ilomastat (GM6001, Galardin)] :: 0.214

Now turn to the next compound.
Lab note: O=C(Nc1cc(C(F)(F)F)cc(C(F)(F)F)c1)c1cc(Cl)ccc1O [IMD 0354] gave Dose.FC.LYZ.S (log2 fold change) of −0.047

----------
Test system: ENR+CD organoids (ISC to Paneth cell differentiation)
test-description: Primary screen: CCh-stimulated lysozyme secretion LYZ.S, 2.5-D 384-well ENR+CD organoid differentiation
Format: cell-based, mouse
study-conditions: primary screen, dose 0.40 uM
Counter-ions that a name gives are not always drawn.
Attribute: Dose.FC.LYZ.S
Answer format reminder: number followed by unit.

Field: example entries. Status: answers known.
OC[C@H]1O[C@@H](c2ccc(Cl)c(Cc3ccc(O[C@H]4CCOC4)cc3)c2)[C@H](O)[C@@H](O)[C@@H]1O :: −0.055 log2 fold change
COc1nc(C)cnc1NS(=O)(=O)c1cccnc1-c1ccc(-c2nnco2)cc1 [Zibotentan (ZD4054)] :: 0.130 log2 fold change
COc1cc2c(cc1O)CC[C@@H]1[C@@H]2CC[C@]2(C)[C@@H](O)CC[C@@H]12 :: 0.270 log2 fold change
CC(C)CCN1c2nc(Nc3cc(F)c(O)c(F)c3)ncc2N(C)C(=O)C1C (centres unmarked) :: 0.158 log2 fold change
N#C[C@@H]1CCCN1C(=O)CNC12CC3CC(CC(O)(C3)C1)C2 :: 0.113 log2 fold change
CN1CCC[C@@H]1CCO[C@](C)(c1ccccc1)c1ccc(Cl)cc1 [Clemastine Fumarate] :: −0.066 log2 fold change

GET /values?item= COc1c(O)cc2c(c1O)[C@@H]1O[C@H](CO)[C@@H](O)[C@H](O)[C@H]1OC2=O &system= ENR+CD organoids (ISC to Paneth cell differentiation) returns Dose.FC.LYZ.S: 0.108 log2 fold change

Measured Dose.FC.LYZ.S (ENR+CD organoids (ISC to Paneth cell differentiation)), entry CC(=O)Nc1nc2c(Oc3cc(-c4ccc(C(F)(F)F)cc4)ncn3)cccc2s1 : 0.060 log2 fold change

Per the reported ENR+CD organoids (ISC to Paneth cell differentiation) data, CC1(C)CCC(c2ccc(Cl)cc2)=C(CN2CCN(c3ccc(C(=O)NS(=O)(=O)c4ccc(N[C@H](CCN5CCOCC5)CSc5ccccc5)c(S(=O)(=O)C(F)(F)F)c4)cc3)CC2)C1 has Dose.FC.LYZ.S of −0.020 log2 fold change

The reported Dose.FC.LYZ.S value, ENR+CD organoids (ISC to Paneth cell differentiation), for COc1cc(Nc2ncc(F)c(Nc3ccc4c(n3)N(COP(=O)(O)O)C(=O)C(C)(C)O4)n2)cc(OC)c1OC [Fostamatinib (R788)] reads 0.156 log2 fold change

# value of Dose.FC.LYZ.S, ENR+CD organoids (ISC to Paneth cell differentiation), item C[C@H]1COC2(CCN(c3nc(=O)c4cc(C(F)(F)F)cc([N+](=O)[O-])c4s3)CC2)O1 (racemic) [BTZ043 Racemate] = 0.252 log2 fold change

Reading of Dose.FC.LYZ.S for O=C(Nc1cccc(C(F)(F)F)c1)Nc1cc(S(=O)(=O)NC2CC2)ccc1-c1ccsc1 with ENR+CD organoids (ISC to Paneth cell differentiation): 0.156 log2 fold change

Case O=C(Oc1cc(S(=O)(=O)c2ccccc2)ccc1[N+](=O)[O-])c1ccc(Cl)cc1 , ENR+CD organoids (ISC to Paneth cell differentiation), Dose.FC.LYZ.S recorded as 0.042 log2 fold change

Field Dose.FC.LYZ.S (ENR+CD organoids (ISC to Paneth cell differentiation)), entry CN(C)C(=O)Nc1cccc(-c2ccc(N(C)C)cc2)c1 : −0.035 log2 fold change

# C[C@]12CC[C@@H]3c4ccc(O)cc4C[C@@H](CCCCCCCCC[S+]([O-])CCCC(F)(F)C(F)(F)F)[C@H]3[C@@H]1CC[C@@H]2O (some centres unmarked) with ENR+CD organoids (ISC to Paneth cell differentiation): Dose.FC.LYZ.S is −0.049 log2 fold change

Measured Dose.FC.LYZ.S for this entry CCCCCCCCc1ccc(CCC(N)(CO)CO)cc1.Cl [Fingolimod (FTY720) HCl] on ENR+CD organoids (ISC to Paneth cell differentiation): 0.077 log2 fold change

Case NC(=O)C1CCCc2c1[nH]c1ccc(Cl)cc21 (centres unmarked) [EX 527 (Selisistat)] , ENR+CD organoids (ISC to Paneth cell differentiation), Dose.FC.LYZ.S recorded as 0.047 log2 fold change

Tested on ENR+CD organoids (ISC to Paneth cell differentiation), the item CCOC(=O)C1=C(C)NC(C)=C(C(=O)OC)C1c1cccc(Cl)c1Cl (centres unmarked) showed Dose.FC.LYZ.S equal to −0.042 log2 fold change

Record for CCCS(=O)(=O)Nc1ccc(F)c(C(=O)c2c[nH]c3ncc(-c4ccc(Cl)cc4)cc23)c1F under target or system ENR+CD organoids (ISC to Paneth cell differentiation): Dose.FC.LYZ.S reported as 0.150 log2 fold change

The reported Dose.FC.LYZ.S value, ENR+CD organoids (ISC to Paneth cell differentiation), for CCC(CC)CC1(C(=O)Nc2ccccc2SC(=O)C(C)C)CCCCC1 reads 0.104 log2 fold change

For the molecule Cc1c(-c2ccc(O)cc2)n(Cc2ccc(OCCN3CCCCCC3)cc2)c2ccc(O)cc12 [Bazedoxifene HCl] , the measured Dose.FC.LYZ.S on ENR+CD organoids (ISC to Paneth cell differentiation) was 0.065 log2 fold change

Dose.FC.LYZ.S for ENR+CD organoids (ISC to Paneth cell differentiation) with input CC(C)OC(=O)OCOP(=O)(CO[C@H](C)Cn1cnc2c(N)ncnc21)OCOC(=O)OC(C)C [Tenofovir Disoproxil Fumarate] equals 0.086 log2 fold change

Fill in: ENR+CD organoids (ISC to Paneth cell differentiation) Dose.FC.LYZ.S for Cl.Cl.Cl.O[C@@H](COc1cccc2ncccc12)CN1CCN([C@@H]2c3ccccc3[C@@H]3[C@H](c4ccccc42)C3(F)F)CC1 [Zosuquidar (LY335979) 3HCl] = 0.127 log2 fold change

Simply: COc1cc(N2CCC(N3CCN(C)CC3)CC2)ccc1Nc1ncc(Cl)c(Nc2ccccc2P(C)(C)=O)n1 , ENR+CD organoids (ISC to Paneth cell differentiation), Dose.FC.LYZ.S = −0.038 log2 fold change

Measured Dose.FC.LYZ.S (ENR+CD organoids (ISC to Paneth cell differentiation)), entry CC(=O)O[C@]1(C(C)=O)CC[C@H]2[C@@H]3C=C(Cl)C4=CC(=O)[C@@H]5C[C@@H]5[C@]4(C)[C@H]3CC[C@@]21C [Cyproterone Acetate] : −0.019 log2 fold change
